# Tested on: RXF-631 renal
# Test name: NCI tumour cell line growth inhibition, 48 h

Compound: Cc1cccc(N(CC(=O)O)S(=O)(=O)c2ccccc2)c1
Target of assay: RXF-631 renal
TGI: > 100 µM
//
Compound: COC(=O)C1C(=O)N(CCc2c[nH]c3ccccc23)C[C@@H]2CCC(=O)C[C@H]12 (some centres undefined)
Target of assay: RXF-631 renal
TGI: > 100 µM
//
Compound: O=c1[nH]c2cc([N+](=O)[O-])ccc2nc1/C(=N\Nc1ccccc1)C(O)c1ccc2c(c1)OCO2 (centres undefined)
Target of assay: RXF-631 renal
TGI: > 100 µM
//
Compound: Cc1ccc(C)c(N2C(=O)C(=O)C(c3nc4ccccc4s3)C(=Nc3cccc4c(=O)[nH][nH]c(=O)c34)C2=O)c1 (centres undefined)
Target of assay: RXF-631 renal
TGI: > 100 µM

Numbers sourced from PubChem BioAssay (NCI).
